Experiment: Pharmacokinetic study in rats
Assay type: in vivo
Settings: male, Sprague-Dawley, plasma; rat, ip 100 mg/kg, saline
PARAMETER: AUC(0-t)

{"COMPOUND": "Cc1cc(C)cc(NC(=O)CCc2ccc(OC(C)(C)C(=O)O)cc2)c1 [19c]", "VALUE_OBSERVED": "612 µg·h/mL"}

* * *

Experiment: Pharmacokinetic study in rats
Assay type: in vivo
Settings: male, Sprague-Dawley, plasma; rat, po 100 mg/kg, saline

{"COMPOUND": "Cc1cc(C)cc(NC(=O)CCc2ccc(OC(C)(C)C(=O)O)cc2)c1 [19c]", "UNIT_INFO": "µg/mL", "Cmax": 111}

* * *

Experiment: Pharmacokinetic study in rats
Assay type: in vivo
Conditions: male, Sprague-Dawley, plasma; rat, ip 100 mg/kg, saline

{"COMPOUND": "Cc1cc(C)cc(NC(=O)CCc2ccc(OC(C)(C)C(=O)O)cc2)c1 [19c]", "Cmax, µg/mL": 202}

* * *

Assay: Pharmacokinetic study in rats
Format: in vivo
Conditions: male, Sprague-Dawley, plasma; rat, po 100 mg/kg, saline

{"COMPOUND": "Cc1cc(C)cc(NC(=O)CCc2ccc(OC(C)(C)C(=O)O)cc2)c1 [19c]", "UNIT_INFO": "h", "half-life": 2.78}

* * *

Assay: Pharmacokinetic study in rats
Assay type: in vivo
Details: male, Sprague-Dawley, plasma; rat, po 100 mg/kg, saline

{"MOLECULE": "Cc1cc(C)cc(NC(=O)CCc2ccc(OC(C)(C)C(=O)O)cc2)c1 [19c]", "AUC(0-inf) / µg·h/mL": 411}

* * *

Test: Pharmacokinetic study in rats
Type: in vivo
Settings: male, Sprague-Dawley, plasma; rat, po 100 mg/kg, saline
PARAMETER: AUC(0-t)

{"MOLECULE": "Cc1cc(C)cc(NC(=O)CCc2ccc(OC(C)(C)C(=O)O)cc2)c1 [19c]", "VALUE_OBSERVED": "410 µg·h/mL"}

* * *

Assay: Pharmacokinetic study in rats
Assay type: in vivo
Conditions: male, Sprague-Dawley, plasma; rat, ip 100 mg/kg, saline; read-out: MRTInf_obs
PARAMETER: MRT inf

{"MOLECULE": "Cc1cc(C)cc(NC(=O)CCc2ccc(OC(C)(C)C(=O)O)cc2)c1 [19c]", "PARAMETER": "MRT inf", "VALUE_OBSERVED": "2.32 h"}

* * *

Assay: Pharmacokinetic study in rats
Assay type: in vivo
Conditions: male, Sprague-Dawley, plasma; rat, po 100 mg/kg, saline; read-out: MRTInf_obs

{"COMPOUND": "Cc1cc(C)cc(NC(=O)CCc2ccc(OC(C)(C)C(=O)O)cc2)c1 [19c]", "MRT inf (h)": 2.58}
